Species on record: Mus musculus
Assay: Toxic cataleptic effect in Swiss albino mouse assessed as maximum average cataleptic time
Type: toxicity, organism-based
Settings: in vivo
endpoint.name: Activity (s)

{"compound": "Cc1nc2n(c(=O)c1CCN1CCC(c3noc4cc(F)ccc34)CC1)CCCC2 [RISPERIDONE]", "reported": 2.54}
{"compound": "CC(=O)NCC(=O)N1CCN(CCc2ccc(-c3nc(C)sc3C)cc2)CC1", "reported": 5.12}
{"compound": "CC(=O)NCC(=O)N1CCN(CCc2ccc(-c3csc(C)n3)cc2)CC1", "reported": 4.62}
{"compound": "CNc1nc(-c2ccc(CCN3CCN(C(=O)CNC(C)=O)CC3)cc2)cs1", "reported": 16.54}

====

Species: Mus musculus
Assay: Toxic cataleptic effect against Swiss albino mouse
Type: toxicity, organism-based
Conditions: in vivo

{"molecule": "Cc1nc2n(c(=O)c1CCN1CCC(c3noc4cc(F)ccc34)CC1)CCCC2 [RISPERIDONE]", "Activity": "Non-toxic"}
{"molecule": "CNc1nc(-c2ccc(CCN3CCN(C(=O)CNC(C)=O)CC3)cc2)cs1", "Activity": "Non-toxic"}
{"molecule": "CC(=O)NCC(=O)N1CCN(CCc2ccc(-c3nc(C)sc3C)cc2)CC1", "Activity": "Non-toxic"}
{"molecule": "CC(=O)NCC(=O)N1CCN(CCc2ccc(-c3csc(C)n3)cc2)CC1", "Activity": "Non-toxic"}

====

Tested on: Mus musculus
Assay: Inhibition of 5HT2A receptor-mediated quipazine-induced head twitches in Swiss albino mouse at 10 mg/kg
Format: functional
inhibition in vivo at 10 mg/kg values for the compounds below.

{"compound": "CC(=O)NCC(=O)N1CCN(CCc2ccc(-c3nc(C)sc3C)cc2)CC1", "inhibition in vivo at 10 mg/kg": "71%"}
{"compound": "CC(=O)NCC(=O)N1CCN(CCc2ccc(-c3csc(C)n3)cc2)CC1", "inhibition in vivo at 10 mg/kg": "20%"}
{"compound": "CNc1nc(-c2ccc(CCN3CCN(C(=O)CNC(C)=O)CC3)cc2)cs1", "inhibition in vivo at 10 mg/kg": "54%"}
{"compound": "Cc1nc2n(c(=O)c1CCN1CCC(c3noc4cc(F)ccc34)CC1)CCCC2 [RISPERIDONE]", "inhibition in vivo at 10 mg/kg": "100%"}

====

System: Mus musculus
Assay: Inhibition of dopamine D2 receptor-mediated apomorphine-induced cage climbing behavior in Swiss albino mouse at 10 mg/kg
Assay type: functional
# inhibition in vivo at 10 mg/kg listing for each entry below
endpoint.name: inhibition in vivo at 10 mg/kg (%)

{"smiles.repr": "CC(=O)NCC(=O)N1CCN(CCc2ccc(-c3nc(C)sc3C)cc2)CC1", "assay.system": "Mus musculus", "endpoint.name": "inhibition in vivo at 10 mg/kg", "reported": 80}
{"smiles.repr": "CNc1nc(-c2ccc(CCN3CCN(C(=O)CNC(C)=O)CC3)cc2)cs1", "assay.system": "Mus musculus", "endpoint.name": "inhibition in vivo at 10 mg/kg", "reported": 60}
{"smiles.repr": "Cc1nc2n(c(=O)c1CCN1CCC(c3noc4cc(F)ccc34)CC1)CCCC2", "assay.system": "Mus musculus", "endpoint.name": "inhibition in vivo at 10 mg/kg", "reported": 91}
{"smiles.repr": "CC(=O)NCC(=O)N1CCN(CCc2ccc(-c3csc(C)n3)cc2)CC1", "assay.system": "Mus musculus", "endpoint.name": "inhibition in vivo at 10 mg/kg", "reported": 70}

Measured values drawn from ChEMBL document CHEMBL1152151 for this set.
